# experimental details: % of dose in solution in the dose formulation (dose analysis pre- and post-centrifugation)
# Format: physicochemical
# experimental conditions: aqueous dose formulation
measurement kind: % Dose in solution (%)

(A) CC(C)(C)NCC(O)c1ccc(O)c(CO)c1 (centres unmarked)
(B) CCCc1c2oc(C(=O)O)cc(=O)c2cc2c(=O)cc(C(=O)O)n(CC)c12
query: Could you tell me which of these two has the smaller % Dose in solution figure? First: A Second: B Let me know the label of the one you choose.
result: B
(B: 24%, A: 55%)

(P) C[C@@H]1C[C@H]2[C@@H]3C[C@H](F)C4=CC(=O)C=C[C@]4(C)[C@@]3(F)[C@@H](O)C[C@]2(C)[C@@]1(OC(=O)c1ccco1)C(=O)SCF [Fluticasone Furoate]
(Q) CCCC1O[C@@H]2C[C@H]3[C@@H]4CCC5=CC(=O)C=C[C@]5(C)[C@H]4[C@@H](O)C[C@]3(C)[C@]2(C(=O)CO)O1 (some centres unmarked) [Budesonide]
query: Just tell me: smaller % Dose in solution value, P or Q ? Could you answer with the label of the item you picked?
result: P

(I) CCc1cc2c(cc1CC)CC(NC[C@H](O)c1ccc(O)c3[nH]c(=O)ccc13)C2
(II) CCC(=O)O[C@]1(C(=O)SCF)[C@H](C)C[C@H]2[C@@H]3C[C@H](F)C4=CC(=O)C=C[C@]4(C)[C@@]3(F)[C@@H](O)C[C@@]21C [Fluticasone Propionate]
(III) C=CC[C@@H]1/C=C(\C)C[C@H](C)C[C@H](OC)[C@H]2O[C@@](O)(C(=O)C(=O)N3CCCC[C@H]3C(=O)O[C@H](/C(C)=C/[C@@H]3CC[C@@H](O)[C@H](OC)C3)[C@H](C)[C@@H](O)CC1=O)[C@H](C)C[C@@H]2OC
query: Hey, can you sort those compounds up there by % Dose in solution, smallest first? Output spec: a listing of the labels in the requested order.
result: II, III, I
(II: 0.5%, III: 21%, I: 88%)

(P) OCc1cc(C(O)CNCCCCCCOCCCCc2ccccc2)ccc1O (centres unmarked)
(Q) Nc1c(Br)cc(Br)cc1CN[C@H]1CC[C@H](O)CC1
query: // compare measured % Dose in solution, left P , right Q , return larger Identify your pick by its label.
result: Q

Just for reference, paper PMC5040732 is where these values come from.
